Measured TEAD3 TAZ HTRF combined: Max % Inhibition, listed per entry for reference.
target: TEAD3 TAZ (amino acids 13-57) (Homo sapiens, UniProt Q99594); experiment: TEAD3-TAZ HTRF (TR-FRET) protein-protein interaction assay; format: binding; details: TEAD3, TAZ peptide, HTRF
Sequence (Q99594 173-435 limits assumed): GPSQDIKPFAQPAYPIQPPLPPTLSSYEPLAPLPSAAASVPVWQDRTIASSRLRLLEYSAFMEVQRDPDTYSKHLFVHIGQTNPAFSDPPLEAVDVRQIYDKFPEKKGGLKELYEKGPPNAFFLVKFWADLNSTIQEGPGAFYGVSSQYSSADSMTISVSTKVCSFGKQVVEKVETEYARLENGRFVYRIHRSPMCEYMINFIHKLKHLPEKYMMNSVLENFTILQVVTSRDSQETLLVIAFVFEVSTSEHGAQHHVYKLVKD
Value Type: TEAD3 TAZ HTRF combined: Max % Inhibition (%)

INSERT INTO results (compound, endpoint_value) VALUES
  ('Cc1nccnc1-c1nn2c(=O)cc(-c3ccc(O[C@@H](c4ccccc4)C(F)(F)F)cc3)[nH]c2c1C(=O)N1CC(CF)C1', 71.0),
  ('Cc1nccnc1-c1nn2c(=O)cc(-c3ccc(C4CCCCC4)cc3)[nH]c2c1C(=O)N1CC(CF)C1', 64.9),
  ('O=C(c1nn2c(=O)cc(-c3ccc(C4CCCCC4)cc3)[nH]c2c1C(=O)N1CC(CF)C1)N1CCCC1', 60.0),
  ('C[C@H](CO)c1nn2c(=O)cc(-c3ccc(C4CCCCC4)cc3)[nH]c2c1C(=O)N1CC(CF)C1 (single isomer, unassigned) [Enantiomer A, Example 55]', 59.5),
  ('O=C(c1c(-c2cnccn2)nn2c(=O)cc(-c3ccc(C4CCCCC4)cc3)[nH]c12)N1CC(CF)C1', 53.9),
  ('Cc1nccnc1-c1nn2c(=O)cc(-c3ccc(OC(c4ccccc4)C(F)(F)F)cc3)[nH]c2c1C(=O)N1C[C@H](CF)[C@@H]1C (single isomer, unassigned) [Final product obtained using Enantiomer B from Step 1, Example 56]', 68.0),
  ('CCCCCCC/C=C/c1cc(=O)n2nc(-c3nccnc3C)c(C(=O)N3C[C@H](CF)[C@@H]3C)c2[nH]1', 52.5),
  ('CCCCCCCCCc1cc(=O)n2nc(-c3nccnc3C)c(C(=O)N3C[C@H](CF)[C@@H]3C)c2[nH]1', 49.0),
  ('O=C(c1c(-c2cnccn2)nn2c(=O)cc(-c3ccc(C4CCCCC4)c(F)c3)[nH]c12)N1CC(CF)C1', 56.5),
  ('Cc1nccnc1-c1nn2c(=O)cc(-c3ccc(OC(c4ccccc4)C(F)(F)F)cc3)[nH]c2c1C(=O)N1C[C@H](CF)[C@@H]1C (single isomer, unassigned) [Final product obtained using Enantiomer A from Step 1, Example 56]', 74.5),
  ('CCn1cnc(-c2nn3c(=O)cc(-c4ccc(C5CCCCC5)cc4)[nH]c3c2C(=O)N2CC(CF)C2)c1', 49.5),
  ('O=C(c1c(-c2ncccn2)nn2c(=O)cc(-c3ccc(CC4CCCC4)cc3)[nH]c12)N1CC(CF)C1', 43.0);
